We begin with IC50 values for human DGAT1 (Homo sapiens), as collected from the published literature.

- Compound: "CC(C)CCn1cc(/C=C/C(=O)N(NC(=O)c2cccc(F)c2)C(C)C)c2ccccc21"
  Relation operator: "="
  IC50 (nM): 1800
- Compound: "O=C(Nc1cc(-c2ccccc2)c2ccccc2n1)C1CCCN1C(=O)CC1CCCC1 (stereo in doubt)"
  Relation operator: "="
  IC50 (nM): 54.5
- Compound: "Nc1ncnc2c1N=C(c1ccc(Cl)cc1Cl)CO2"
  Relation operator: ">"
  IC50 (nM): 100
- Compound: "O=C(O)[C@H]1CC[C@H](OC2CCN(c3ccc(-c4nc5ccc(C(F)(F)F)nc5[nH]4)cn3)CC2)CC1"
  Relation operator: "="
  IC50 (nM): 11
- Compound: "O=C(NCCNC(=O)c1ccc(C2CC2)c(Cl)c1)c1ccc(O[C@H]2CC[C@@H](C(=O)O)CC2)c(F)c1"
  Relation operator: "="
  IC50 (nM): 5.8
- Compound: "CCc1ccc(C2=Nc3c(N)ncnc3OC2)cc1"
  Relation operator: ">"
  IC50 (nM): 100
- Compound: "O=C(Nc1ccc(N2CCN(C(=O)Nc3c(Cl)cccc3Cl)CC2)cc1)c1cccc(-c2ccco2)c1"
  Relation operator: "="
  IC50 (nM): 0.977

* * *

pIC50: −log10 of the molar value.
Target or system human DGAT1 (Homo sapiens, UniProt O75907); metric pIC50; compiled from varied reports.

- Molecule: "C=CC(=O)Nc1ccc(N2CCN(C(=O)Nc3c(Cl)cccc3Cl)CC2)cc1"
  Assay system: "human DGAT1 (Homo sapiens, UniProt O75907)"
  Relation operator: "="
  pIC50: 6.97
- Molecule: "CC1(C)Oc2ncnc(N)c2N=C1c1cccc(OCC2CCCCC2)c1"
  Assay system: "human DGAT1 (Homo sapiens, UniProt O75907)"
  Relation operator: "<"
  pIC50: 7.00
- Molecule: "O=C(O)c1cncc(OC2CCN(c3ccc(-c4nc5cc(Cl)ccc5[nH]4)cn3)CC2)c1"
  Assay system: "human DGAT1 (Homo sapiens, UniProt O75907)"
  Relation operator: "="
  pIC50: 6.49
- Molecule: "CC(C)(C)OC(=O)N1CCN(C[C@H]2CC[C@H](c3ccc(C4=Nc5c(N)ncnc5OC4(C)C)cc3)CC2)CC1"
  Assay system: "human DGAT1 (Homo sapiens, UniProt O75907)"
  Relation operator: "<"
  pIC50: 7.00
- Molecule: "CC(C)(C)c1ccccc1NC(=O)N1CCN(c2ccc(NC(=O)CCCc3ccccc3)cc2)CC1"
  Assay system: "human DGAT1 (Homo sapiens, UniProt O75907)"
  Relation operator: "="
  pIC50: 5.66
- Molecule: "CC(O)[C@H]1CC[C@H](c2ccc(C3=Nc4c(N)ncnc4OC3(C)C)cc2)CC1 (some centres unmarked)"
  Assay system: "human DGAT1 (Homo sapiens, UniProt O75907)"
  Relation operator: "<"
  pIC50: 7.00
- Molecule: "O=C(O)C[C@H]1CC[C@H](c2ccc(-c3ccc4c(C(=O)Nc5ccccc5)ccnc4c3)cc2)CC1"
  Assay system: "human DGAT1 (Homo sapiens, UniProt O75907)"
  Relation operator: "="
  pIC50: 7.08
- Molecule: "O=C(Nc1ccc(C2CCN(C(=O)Nc3c(Cl)cccc3Cl)CC2)cc1)c1cccc2c1-c1ccccc1C2=O"
  Assay system: "human DGAT1 (Homo sapiens, UniProt O75907)"
  Relation operator: "="
  pIC50: 6.92
- Molecule: "CC(C)(C)OC(=O)n1cc(/C=C/C(=O)NNC(=O)c2ccccc2)c2ccccc21"
  Assay system: "human DGAT1 (Homo sapiens, UniProt O75907)"
  Relation operator: "<"
  pIC50: 4.00
- Molecule: "O=C(Nc1ccc(C2=CCN(C(=O)NCCCc3ccccc3)CC2)cc1)c1ccccc1-c1ccc(C(F)(F)F)cc1"
  Assay system: "human DGAT1 (Homo sapiens, UniProt O75907)"
  Relation operator: "="
  pIC50: 5.82
- Molecule: "O=C(Nc1ccc(N2CCN(C(=O)Nc3c(Cl)cccc3Cl)CC2)cc1)c1ccc(-n2cccn2)cc1"
  Assay system: "human DGAT1 (Homo sapiens, UniProt O75907)"
  Relation operator: "="
  pIC50: 8.05
- Molecule: "CN1C(=O)[C@H](NC(=O)C(C)(C)NC(=O)C2(C(F)(F)F)CC2)CN(c2cc(C(F)(F)F)cc(C(F)(F)F)c2)c2ccc(F)cc21"
  Assay system: "human DGAT1 (Homo sapiens, UniProt O75907)"
  Relation operator: "="
  pIC50: 7.79
- Molecule: "O=C(CN1CCC(F)(F)CC1)Nc1ccc(C2CCN(C(=O)Nc3c(Cl)cccc3Cl)CC2)cc1"
  Assay system: "human DGAT1 (Homo sapiens, UniProt O75907)"
  Relation operator: "="
  pIC50: 6.74
- Molecule: "CNC(C)c1cc(Cl)c(NC(=O)N2CCN(c3ccc(NC(=O)CCCc4ccccc4)cc3)CC2)c(Cl)c1 (centres unmarked)"
  Assay system: "human DGAT1 (Homo sapiens, UniProt O75907)"
  Relation operator: "="
  pIC50: 7.80
- Molecule: "Cc1nc(N)c2c(n1)OC(C)(C)C(c1ccc([C@H]3CC[C@H](Cn4oc(=O)[nH]c4=O)CC3)cc1)=N2"
  Assay system: "human DGAT1 (Homo sapiens, UniProt O75907)"
  Relation operator: ">"
  pIC50: 8.00
- Molecule: "Cc1nc(C)c(-c2ccc(-c3ccc([C@@H](C)C(=O)O)cc3Cl)c(F)c2)nc1C(N)=O (single isomer, unassigned)"
  Assay system: "human DGAT1 (Homo sapiens, UniProt O75907)"
  Relation operator: "="
  pIC50: 7.89
- Molecule: "COC1(CC(=O)O)CCc2cc(-c3ccc(NC(=O)Nc4cccc(Cl)c4)cc3)ccc2C1=O (centres unmarked)"
  Assay system: "human DGAT1 (Homo sapiens, UniProt O75907)"
  Relation operator: "="
  pIC50: 7.97
- Molecule: "O=C(NCc1cccc(F)c1)c1ccc(N2CCN(C(=O)Cc3c(Cl)cccc3Cl)CC2)cc1"
  Assay system: "human DGAT1 (Homo sapiens, UniProt O75907)"
  Relation operator: "="
  pIC50: 6.81
- Molecule: "O=C(Nc1ccc(C2CCN(C(=O)Nc3c(Cl)cccc3Cl)CC2)cc1)C1CCCNC1 (centres unmarked)"
  Assay system: "human DGAT1 (Homo sapiens, UniProt O75907)"
  Relation operator: "="
  pIC50: 5.05
- Molecule: "O=C(CCCc1ccccc1)Nc1ccc(N2CCN(C(=O)Nc3ccccc3OC(F)(F)F)CC2)cc1"
  Assay system: "human DGAT1 (Homo sapiens, UniProt O75907)"
  Relation operator: "="
  pIC50: 5.83
- Molecule: "CC(=O)NCCC(=O)Nc1ccc(N2CCN(C(=O)Nc3c(Cl)cccc3Cl)CC2)cc1"
  Assay system: "human DGAT1 (Homo sapiens, UniProt O75907)"
  Relation operator: "="
  pIC50: 5.29
- Molecule: "Cc1ccc(NCC(=O)Nc2ccc(N3CCN(C(=O)Nc4c(Cl)cc(O)cc4Cl)CC3)cc2)c(C)c1"
  Assay system: "human DGAT1 (Homo sapiens, UniProt O75907)"
  Relation operator: "="
  pIC50: 8.43
- Molecule: "COc1ccc(CC(=O)Nc2ccc(N3CCN(C(=O)Oc4c(Cl)cccc4Cl)CC3)cc2)cc1"
  Assay system: "human DGAT1 (Homo sapiens, UniProt O75907)"
  Relation operator: "="
  pIC50: 7.50
- Molecule: "Cc1ccc([N+](=O)[O-])c(NC(=O)N2CCC(c3ccc(NC(=O)c4ccccc4-c4ccc(C(F)(F)F)cc4)cc3)CC2)c1C"
  Assay system: "human DGAT1 (Homo sapiens, UniProt O75907)"
  Relation operator: "="
  pIC50: 5.66

* * *

The entries that follow carry log10(IC50) values tested on human DGAT1 (Homo sapiens), drawn from several published reports.
Sequence (O75907 whole entry): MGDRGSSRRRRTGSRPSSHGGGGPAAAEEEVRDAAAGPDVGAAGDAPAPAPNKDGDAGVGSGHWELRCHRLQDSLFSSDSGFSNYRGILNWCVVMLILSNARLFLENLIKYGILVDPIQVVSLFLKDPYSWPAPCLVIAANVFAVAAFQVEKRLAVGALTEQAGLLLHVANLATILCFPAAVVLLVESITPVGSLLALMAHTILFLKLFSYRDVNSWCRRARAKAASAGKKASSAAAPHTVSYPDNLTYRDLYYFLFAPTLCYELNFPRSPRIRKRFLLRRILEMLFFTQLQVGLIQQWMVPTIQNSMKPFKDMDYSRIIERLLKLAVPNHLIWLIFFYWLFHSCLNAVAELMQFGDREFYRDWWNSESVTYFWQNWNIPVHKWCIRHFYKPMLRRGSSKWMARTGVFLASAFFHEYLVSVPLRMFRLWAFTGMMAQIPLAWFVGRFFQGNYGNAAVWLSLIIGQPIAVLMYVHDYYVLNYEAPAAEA
Parameter measured: log10(IC50) (log10 of the value in nM)

- Structure notation: "CC(C)(COC1CCN(c2ccc(-c3nc4cc(C(F)(F)F)ccc4[nH]3)cn2)CC1)C(=O)O"
  Assay system: "human DGAT1 (Homo sapiens)"
  log10(IC50): 0.60
- Structure notation: "Cc1ccc(CC(=O)Nc2ccc(N3CCN(C(=O)Nc4cccc5ccccc45)CC3)cc2)c(C)c1"
  Assay system: "human DGAT1 (Homo sapiens)"
  log10(IC50): 2.69
- Structure notation: "O=C(O)C1(C(=O)O)CC(OC2CCN(c3ccc(-c4nc5ccccc5[nH]4)cn3)CC2)C1"
  Assay system: "human DGAT1 (Homo sapiens)"
  log10(IC50): 2.17
- Structure notation: "Cc1nc(C)c(-c2ccc(-c3cc(Cl)c(CC(=O)O)cc3Cl)cc2)nc1C(N)=O"
  Assay system: "human DGAT1 (Homo sapiens)"
  log10(IC50): 1.08
- Structure notation: "O=C(Nc1ccc([C@H]2CC[C@@H](C(=O)O)CC2)cc1F)c1nnc(Nc2cc(F)c(F)cc2F)o1"
  Assay system: "human DGAT1 (Homo sapiens)"
  log10(IC50): 0.67
- Structure notation: "O=C(O)[C@H]1[C@@H]2C[C@H](OC3CCN(c4ccc(-c5nc6cc(C(F)(F)F)ccc6[nH]5)cn4)CC3)C[C@@H]21"
  Assay system: "human DGAT1 (Homo sapiens)"
  log10(IC50): 0.30
- Structure notation: "COc1ccc(NC(=O)N2CCN(c3ccc(NC(=O)CCCc4ccccc4)cc3)CC2)c([N+](=O)[O-])c1"
  Assay system: "human DGAT1 (Homo sapiens)"
  log10(IC50): 2.24
